Catalogue of SPOT peptide array binding signal intensity values
# Measured on: SpRvs167
# Protocol summary: SPOT peptide array binding signal intensity (averaged, normalized) (arbitrary units (background-subtracted, floor 0; scale differs between SH3 domains)); higher = stronger binding of the SH3 domain to the peptide
Give your answer as a number; write no unit.

Known SPOT peptide array binding signal intensity results, listed for orientation:
[
  {
    "Binder": "MPAPPPPPPPPPGAF",
    "Measured value": 43.4
  },
  {
    "Binder": "LKRITSPPLPPRADS",
    "Measured value": 3150
  },
  {
    "Binder": "SNRRPVPRRPSQPLN",
    "Measured value": 1830
  },
  {
    "Binder": "NLKKRPPTAPQRKIS",
    "Measured value": 539
  },
  {
    "Binder": "LKQRFFLMFPKSIIW",
    "Measured value": 14.3
  }
]

Lab book: SPOT peptide array binding signal intensity of GQYRRTIVIPRRFFT noted as 43

Reference source: the supplement of paper PMC4466140
